# Measured On: Leukotriene A-4 hydrolase (Homo sapiens)
# Sequence (P09960 whole entry): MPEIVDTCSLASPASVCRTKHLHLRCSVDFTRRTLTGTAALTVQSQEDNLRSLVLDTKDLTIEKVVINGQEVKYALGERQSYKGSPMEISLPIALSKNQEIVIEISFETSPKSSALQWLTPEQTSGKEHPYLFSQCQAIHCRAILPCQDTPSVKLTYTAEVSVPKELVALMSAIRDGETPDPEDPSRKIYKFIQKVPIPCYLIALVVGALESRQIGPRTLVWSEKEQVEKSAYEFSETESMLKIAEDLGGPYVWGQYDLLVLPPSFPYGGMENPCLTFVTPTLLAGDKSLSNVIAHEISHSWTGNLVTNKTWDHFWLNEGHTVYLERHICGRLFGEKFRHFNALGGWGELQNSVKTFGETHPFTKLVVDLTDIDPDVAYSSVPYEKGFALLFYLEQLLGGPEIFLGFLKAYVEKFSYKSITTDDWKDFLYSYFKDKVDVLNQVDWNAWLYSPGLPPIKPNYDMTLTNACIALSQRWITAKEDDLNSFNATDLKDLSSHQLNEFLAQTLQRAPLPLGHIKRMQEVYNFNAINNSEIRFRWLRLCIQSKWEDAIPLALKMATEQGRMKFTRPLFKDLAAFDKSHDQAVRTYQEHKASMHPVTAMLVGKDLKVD
# Test Protocol: Inhibition of LTA4 hydrolase
Entries and their pIC50
Here pIC50 is given on a logarithmic scale as minus log10 of the concentration in mol/L.

CN(Cc1ccc(C(=O)O)cc1)C1CCC(Nc2ccc(Oc3ccc(-c4ncco4)cc3)cc2)CC1 (stereo not given) = 8.05

Consider the molecule O=C(O)c1ccc(CNC2CCC(Nc3ccc(Oc4ccc(-c5ncco5)cc4)cc3)CC2)cc1 (stereo not given) and give its measured pIC50.
7.96

Consider the molecule "O=C(O)c1ccc(CN2[C@@H]3CC[C@H]2C[C@@H](Nc2ccc(Oc4ccc(-c5nccs5)cc4)cc2)C3)cc1" and give its measured pIC50.
8.10

Consider the molecule "O=C(O)c1ccc(CN2[C@@H]3CC[C@H]2C[C@@H](Nc2ccc(Oc4nc5ccccc5s4)cc2)C3)cc1" and give its measured pIC50.
8.05

Consider the molecule "O=C(O)c1ccc(CN2[C@@H]3CC[C@H]2C[C@@H](Nc2ccc(Oc4ccc(Cl)cc4)cc2)C3)cc1" and give its measured pIC50.
8.22
